molecular target: Adenosine receptor A3 (Homo sapiens); experiment: Antagonist activity at human adenosine A3 receptor expressed in forskolin-stimulated CHO cells assessed as inhibition of NECA-induced CRE-SPAP gene transcription by measuring intracellular cAMP level after 5 hrs
pKd: −log10 of the molar value.
Test readout: pKd

COc1ccc(-n2nc3c(NC(=O)CCC(=O)NCCCCCCCCN)nc4ccccc4n3c2=O)cc1 :: 9.48

1: COc1ccc(-n2nc3c(NC(=O)CCC(=O)NCCOCCOCCNC(=O)CCCCCNC(=O)COc4ccc(/C=C/C5=[N+]6C(=Cc7ccc(-c8cccs8)n7[B-]6(F)F)C=C5)cc4)nc4ccccc4n3c2=O)cc1
2: CCN1/C(=C/C=C/C=C/C2=[N+](CCCCCC(=O)NCCOCCOCCNC(=O)CCC(=O)Nc3nc4ccccc4n4c(=O)n(-c5ccc(OC)cc5)nc34)c3cc(S(=O)(=O)[O-])ccc3C2(C)C)C(C)(C)c2cc(S(=O)(=O)O)ccc21
Field: lower recorded pKd (choose 1 or 2 ) Respond with the label that goes with your answer.
2
(2: 6.83, 1: 9.36)

----------
Target: Adenosine receptor A3 (Homo sapiens)
Sequence (P0DMS8 whole entry): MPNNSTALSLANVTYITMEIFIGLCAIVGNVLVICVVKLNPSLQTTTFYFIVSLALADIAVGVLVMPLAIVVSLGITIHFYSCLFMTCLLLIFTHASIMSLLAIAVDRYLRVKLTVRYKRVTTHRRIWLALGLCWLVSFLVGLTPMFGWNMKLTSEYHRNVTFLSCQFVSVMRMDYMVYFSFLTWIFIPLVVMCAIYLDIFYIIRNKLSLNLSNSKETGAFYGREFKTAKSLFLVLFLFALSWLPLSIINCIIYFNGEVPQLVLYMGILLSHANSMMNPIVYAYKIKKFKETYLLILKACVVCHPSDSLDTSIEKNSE
Experiment: Antagonist activity at human adenosine A3 receptor expressed in forskolin-stimulated CHO cells assessed as inhibition of NECA-induced CRE-SPAP gene transcription by measuring intracellular cAMP level after 5 hrs
Test readout: Kd (nM)

COc1ccc(-n2nc3c(NC(=O)CN)nc4ccccc4n3c2=O)cc1 :: 1.45

P: COc1ccc(-n2nc3c(NC(=O)CCC(=O)NCCOCCOCCN)nc4ccccc4n3c2=O)cc1
Q: COc1ccc(-n2nc3c(NC(=O)CCC(=O)NCCOCCOCCNC(=O)CCOCCOCCOCCOCCOCCOCCOCCOCCOCCOCCOCCOCCNC(=O)c4ccc(-c5c6ccc(=[N+](C)C)cc-6oc6cc(N(C)C)ccc56)c(C(=O)[O-])c4)nc4ccccc4n3c2=O)cc1
R: COc1ccc(-n2nc3c(NC(=O)CCC(=O)NCCOCCOCCNC(=O)CCCCCNC(=O)COc4ccc(C5=[N+]6C(=Cc7ccc(-c8cccs8)n7[B-]6(F)F)C=C5)cc4)nc4ccccc4n3c2=O)cc1
S: COc1ccc(-n2nc3c(NC(=O)c4ccc(N)cc4)nc4ccccc4n3c2=O)cc1
hey, can you rank those compounds up there by Kd? biggest number first please Please list the labels according to the requested order.
S, P, Q, R

Source listed as ChEMBL document CHEMBL2021776.
